Data provenance is patent US20230192896A1.

# system-name: T1, FX zymogen (UniProt P00742 41-179; P00742 183-488)
# T1 chain 1: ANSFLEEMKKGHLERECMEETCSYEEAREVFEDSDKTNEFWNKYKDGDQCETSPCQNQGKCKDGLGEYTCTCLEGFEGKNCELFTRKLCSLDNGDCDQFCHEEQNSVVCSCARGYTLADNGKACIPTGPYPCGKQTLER
# T1 chain 2: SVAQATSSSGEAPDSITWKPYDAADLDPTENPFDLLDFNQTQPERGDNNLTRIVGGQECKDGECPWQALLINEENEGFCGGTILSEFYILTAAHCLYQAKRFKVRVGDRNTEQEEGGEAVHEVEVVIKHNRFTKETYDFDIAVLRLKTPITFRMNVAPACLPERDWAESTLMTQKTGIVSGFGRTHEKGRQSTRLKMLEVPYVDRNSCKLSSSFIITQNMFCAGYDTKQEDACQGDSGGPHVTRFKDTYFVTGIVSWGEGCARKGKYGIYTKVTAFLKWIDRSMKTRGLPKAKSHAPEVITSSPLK
# method-summary: BLI
Exercise: state measured Kd for each of the binders provided.
Could you give the number and then its unit, please?

BIIB-12-1316 (antibody, V domains shown) VH: QVQLVESGGGVVQPGRSLRLSCAASGFTFSSYGMHWVRQAPGKGLEWVAVISYDGSNKYYADSVKGRFTISRDNSKNTLYLQMNSLRAEDTAVYYCAKSGQYRAFDIWGQGTMVTVSS VL: DIQMTQSPSSVSASVGDRVTITCRASQGISSWLAWYQQKPGKAPKLLIYAASSLQSGVPSRFSGSGSGTDFTLTISSLQPEDFATYYCQQINNFPPTFGGGTKVEIK | 45 nM
BIIB-12-916 (antibody, V domains shown) VH: QVQLVQSGAEVKKPGASVKVSCKASGYTFTSYYMHWVRQAPGQGLEWMGIINPSGGSTSYAQKFQGRVTMTRDTSTSTVYMELSSLRSEDTAVYYCARGGRQKATRRVDVWGQGTVVTVSS VL: DIQMTQSPSSLSASVGDRVTITCRASQSISSYLNWYQQKPGKAPKLLIYAASSLQSGVPSRFSGSGSGTDFTLTISSLQPEDFATYYCQQLAITPFTFGGGTKVEIK | 15.6 nM

From here, focus on the item given below.
Query string: What measured Kd goes with BIIB-12-904 (antibody, V domains shown) VH: QVQLVESGGGVVQPGRSLRLSCAASGFTFSSYGMHWVRQAPGKGLEWVAVISYDGSNKYYADSVKGRFTISRDNSKNTLYLQMNSLRAEDTAVYYCARGSGRSGYHYWGQGTLVTVSS VL: EIVMTQSPATLSVSPGERATLSCRASQSVSSNLAWYQQKPGQAPRLLIYGASTRATGIPARFSGSGSGTEFTLTISSLQSEDFAVYYCQQAFNWPPTFGGGTKVEIK ?
Result string: 42.3 nM
